// data source = PubChem BioAssay AID1159580

- ASSAY_COMMENT: chemical genetic growth profiling, strain panel (AID 1159580);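 also: tested at 20 µM; growth read once vehicle control cultures reached saturation at 30 °C; 1 = growth at the plate median or of vehicle wells; lower values mean less growth of the strain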
- APPLIED_CONDITIONS: S. cerevisiae deletion strains, growth OD, locus YGL173C, strain kem1, active compounds read low
Among all 5,500 compounds or so, about 2,000 (36%) were called active. Roughly 18% stayed inconclusive and do not appear here. Some of the results follow.
OBSERVED_PROPERTY: normalized growth
Reply with the value as a number alone.

IN: Would you mind telling me what normalized growth value was observed for C[C@H]1c2cccc(O)c2C(O)=C2C(=O)[C@]3(O)C(O)=C(C(N)=O)C(=O)[C@@H](N(C)C)[C@@H]3[C@@H](O)[C@@H]21 ?
OUT: 0.975

IN: Repeat with CC(=O)Oc1ccc(C(c2ccc(OC(C)=O)cc2)c2ccccn2)cc1
OUT: 1.02

IN: Repeat with NC1=NCCN1CC(=O)O
OUT: 1

IN: Repeat with O=P1(NCCCl)OCCCN1CCCl (stereo unspecified)
OUT: 0.984

IN: Repeat with COC(=O)/C(=C1\OC(=O)C(c2ccccc2)=C1O)c1ccccc1
OUT: 0.993

IN: Repeat with CC(=O)Oc1ccc(O)cc1
OUT: 0.975

====

I'd appreciate it if you could supply normalized growth values for the items below.
- ASSAY_COMMENT: chemical genetic growth profiling, strain panel (AID 1159580);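 also: tested at 20 µM; growth read once vehicle control cultures reached saturation at 30 °C; 1 = growth at the plate median or of vehicle wells; lower values mean less growth of the strain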
- APPLIED_CONDITIONS: S. cerevisiae deletion strains, growth OD, locus YNL307C, strain MCK1, active compounds read low
Among all 5,500 compounds or so, about 2,000 (36%) were called active. About 18% were inconclusive and are not listed. The list shows a part of the results.
Reply with the value as a number alone.

IN: Would you mind telling me what normalized growth value was observed for CC1(C)CC2C1CC[C@]1(CBr)CCC3C(CC(=O)O)C(=O)O[C@@]32C1 (stereo partly drawn) ?
OUT: 1.04

IN: Repeat with CC(C)=CCc1c2c(c3occ(-c4ccc(O)c(O)c4)c(=O)c3c1O)C=CC(C)(C)O2
OUT: 0.546

IN: Repeat with CCCc1c(OCCCCc2nn[nH]n2)ccc(C(C)=O)c1O
OUT: 0.993

IN: Repeat with CC(=O)c1cc(CC=C(C)C)c(O)c(CC=C(C)C)c1
OUT: 0.955

IN: Repeat with CS(=O)(=O)Nc1ccc([N+](=O)[O-])cc1Oc1ccccc1
OUT: 0.966

IN: Repeat with CN(C)C(=O)Oc1cccc([N+](C)(C)C)c1
OUT: 0.982

IN: Repeat with CC(C)(C)NCC(O)c1ccc(O)c(CO)c1 (stereo not drawn)
OUT: 1.02

IN: Repeat with CC(N=C(NC#N)Nc1ccncc1)C(C)(C)C (stereo not drawn)
OUT: 1.02

IN: Repeat with COC(=O)c1c(C)c2c(c(C)c1O)OC(=O)c1c(C)c(Cl)c(O)c(Cl)c1O2
OUT: 0.978

IN: Repeat with CCOC(=O)NNc1nncc2ccccc12
OUT: 0.977

IN: Repeat with C=C(C)C1(O)OC(=O)C=C1OC (stereo not drawn)
OUT: 0.999

IN: Repeat with C[C@H]1c2cccc(O)c2C(O)=C2C(=O)[C@]3(O)C(O)=C(C(N)=O)C(=O)[C@@H](N(C)C)[C@@H]3[C@@H](O)[C@@H]21
OUT: 0.973

IN: Repeat with CC(=O)OCC(=O)[C@@]1(O)[C@H](C)CC2C3CCC4=CC(=O)C=C[C@]4(C)[C@@]3(F)[C@@H](O)C[C@@]21C (stereo partly drawn)
OUT: 0.998

IN: Repeat with CC(CCC(=O)O)[C@H]1CCC2C3CC[C@@H]4CC(=O)CC[C@]4(C)C3C=C[C@@]21C (stereo partly drawn)
OUT: 1.02

IN: Repeat with O=P1(N(CCCl)CCCl)NCCCO1 (stereo not drawn)
OUT: 1.02

IN: Repeat with CCOC(=O)[C@H](CCc1ccccc1)N[C@@H](C)C(=O)N1CCC[C@H]1C(=O)O
OUT: 1.04

IN: Repeat with C=C(C)C1CCC(C)(O)C2CC3OC3(C)C2C1 (stereo not drawn)
OUT: 1.02

IN: Repeat with Oc1c(Cl)cc(Cl)cc1Sc1cc(Cl)cc(Cl)c1O
OUT: 0.975

IN: Repeat with Cc1c(C)c2c(c(C)c1O)CCC(C)(CCCC(C)CCCC(C)CCCC(C)C)O2 (stereo not drawn)
OUT: 1

IN: Repeat with COc1ccc([C@@H]2CC(=O)c3c(O)cc(O[C@@H]4O[C@H](CO[C@H]5O[C@@H](C)[C@H](O)[C@@H](O)[C@H]5O)[C@@H](O)[C@H](O)[C@H]4O)cc3O2)cc1O
OUT: 0.97

IN: Repeat with CC[N+](C)(C)c1cccc(O)c1
OUT: 0.973

IN: Repeat with CC(C)CC1NC(=O)CNC1=O (stereo not drawn)
OUT: 0.984

IN: Repeat with CCCSc1ccc2nc(NC(=O)OC)[nH]c2c1
OUT: 0.948

IN: Repeat with NNCc1cccc(O)c1
OUT: 0.997

IN: Repeat with N=C(N)N
OUT: 0.991

IN: Repeat with CC(=O)Oc1c(Cl)c(C)c2c(c1Cl)OC(=O)c1c(C)c(Cl)c(OC(C)=O)c(Cl)c1O2
OUT: 0.771

IN: Repeat with OC[C@H]1O[C@@](CO)(O[C@@H]2O[C@H](CO)[C@@H](O)[C@H](O)[C@H]2O)[C@@H](O[C@@H]2O[C@H](CO)[C@@H](O)[C@H](O)[C@H]2O)[C@@H]1O
OUT: 1.01

IN: Repeat with CC(C)=CC1C(C(=O)O)C1(C)C (stereo not drawn)
OUT: 0.988

IN: Repeat with COC(=O)c1c(OC)cc2c(c1C)Oc1c(Cl)c(O)c(Cl)c(C)c1C(=O)O2
OUT: 0.838

IN: Repeat with CC(CCc1ccccc1)NCC(O)c1ccc(O)c(C(N)=O)c1 (stereo not drawn)
OUT: 1.03

IN: Repeat with NC1=NCCN1CC(=O)O
OUT: 0.993

IN: Repeat with NCCCCCCNS(=O)(=O)c1cccc2c(Cl)cccc12
OUT: 0.965

IN: Repeat with CN[C@@H]1[C@H](O)[C@H](NC)[C@H]2O[C@@]3(O)C(=O)C[C@@H](C)O[C@H]3O[C@@H]2[C@H]1O
OUT: 1.03

IN: Repeat with CNCCCC12CCC(c3ccccc31)c1ccccc12
OUT: 0.978

IN: Repeat with C=C1c2cccc(O)c2C(O)=C2C(=O)[C@]3(O)C(O)=C(C(N)=O)C(=O)[C@@H](N(C)C)[C@@H]3[C@@H](O)[C@H]12
OUT: 1

IN: Repeat with C[C@H](CCC(=O)O)[C@H]1CCC2C3C(=O)CC4CC(=O)CC[C@]4(C)C3CC(=O)[C@@]21C (stereo partly drawn)
OUT: 1

IN: Repeat with Cc1cc(=O)oc2cc(O)c(O)cc12
OUT: 0.989

IN: Repeat with CC(=O)c1ccc(O)c(CC=C(C)C)c1
OUT: 0.952

IN: Repeat with CCN1CCN(C(=O)NC(C(=O)N[C@@H]2C(=O)N3[C@@H]2SC(C)(C)[C@@H]3C(=O)O)c2ccccc2)C(=O)C1=O (stereo partly drawn)
OUT: 1.01

IN: Repeat with C/C1=C/CC(C)(C)/C=C/C/C(C)=C/CC1
OUT: 1.02

IN: Repeat with OC[C@H]1O[C@@H](O[C@@H]2[C@@H](CO)O[C@](O)(CO)[C@H]2O)[C@H](O)[C@@H](O)[C@H]1O
OUT: 0.972

IN: Repeat with CC(C)=CCc1c2c(c3occ(-c4ccc(O)cc4)c(=O)c3c1O)C=CC(C)(C)O2
OUT: 0.957

IN: Repeat with CCCOc1ccc2nc(NC(=O)OC)[nH]c2c1
OUT: 0.972

====

- ASSAY_COMMENT: chemical genetic growth profiling, strain panel (AID 1159580);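 also: tested at 20 µM; growth read once vehicle control cultures reached saturation at 30 °C; 1 = growth at the plate median or of vehicle wells; lower values mean less growth of the strain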
- APPLIED_CONDITIONS: S. cerevisiae deletion strains, growth OD, locus YMR223W, strain ubp8
Hit rate of the full screen: of about 5,500 compounds, about 2,000 (36%) were called active. Inconclusive results (about 18%) are left out. Cut-off read from the data, not from the text of the source: active = normalized growth mostly below about 0.91 (no sharp cut-off); inconclusive = no clear call, values can overlap the other calls; inactive = mostly above about 0.92. The list shows a part of the results.
Please reply with one of these outcomes: active, inactive

IN: Call for entry Cc1c(C)c2c(c(C)c1O)CCC(C)(CCCC(C)CCCC(C)CCCC(C)C)O2 (configuration not stated) :
OUT: inactive

IN: Repeat with CC(=O)Oc1ccc(C(c2ccc(OC(C)=O)cc2)c2ccccn2)cc1
OUT: inactive

IN: Repeat with O=P1(N(CCCl)CCCl)NCCCO1 (configuration not stated)
OUT: inactive

IN: Repeat with CCCN(CCC)S(=O)(=O)c1ccc(C(=O)O)cc1
OUT: inactive

IN: Repeat with O=C(O)c1cc(O)c2c(c1)[C@@H]([C@H]1c3cc(C(=O)O)cc(O)c3C(=O)c3c(O[C@H]4O[C@H](CO)[C@@H](O)[C@H](O)[C@H]4O)cccc31)c1cccc(O[C@H]3O[C@H](CO)[C@@H](O)[C@H](O)[C@H]3O)c1C2=O
OUT: inactive

IN: Repeat with CC(C)CCCC(C)C1CCC2C3CC(=O)[C@H]4C[C@@H](O)CC[C@]4(C)C3CC[C@]12C (some centres not stated)
OUT: inactive

IN: Repeat with O=C(O)c1cccnc1
OUT: inactive

IN: Repeat with CC(=O)Oc1c(Cl)c(C)c2c(c1Cl)OC(=O)c1c(C)c(Cl)c(OC(C)=O)c(Cl)c1O2
OUT: active

IN: Repeat with CC(C)CCCC(C)C1CCC2C3=CC[C@H]4C[C@@H](O)CC[C@]4(C)C3CC[C@@]21C (some centres not stated)
OUT: inactive

IN: Repeat with COC(=O)c1c(OC)cc2c(c1C)Oc1c(Cl)c(O)c(Cl)c(C)c1C(=O)O2
OUT: inactive

IN: Repeat with COc1ccc(C2Sc3ccccc3N(CCN(C)C)C(=O)C2OC(C)=O)cc1 (configuration not stated)
OUT: inactive

IN: Repeat with CC[N+](C)(C)c1cccc(O)c1
OUT: inactive

IN: Repeat with NCCCCCCNS(=O)(=O)c1cccc2c(Cl)cccc12
OUT: inactive

IN: Repeat with CC(=O)OCC(=O)[C@@]1(O)[C@H](C)CC2C3CCC4=CC(=O)C=C[C@]4(C)[C@@]3(F)[C@@H](O)C[C@@]21C (some centres not stated)
OUT: inactive

IN: Repeat with CC(C)CCCC(C)C1CC[C@@]2(C)C3=C(CC[C@]12C)[C@@]1(C)CC[C@H](O)C(C)(C)C1CC3 (some centres not stated)
OUT: inactive

IN: Repeat with CN(C)CCCN1c2ccccc2Sc2ccc(Cl)cc21
OUT: inactive

IN: Repeat with CN(C)C(=O)Oc1cccc([N+](C)(C)C)c1
OUT: inactive

IN: Repeat with CN(C)CCCN1c2ccccc2CCc2ccccc21
OUT: inactive

IN: Repeat with CN(C)CCCN1c2ccccc2Sc2ccccc21
OUT: inactive

IN: Repeat with CC(C)c1ccc2c(c1)CCC1C(C)(C(N)=O)CCCC21C (configuration not stated)
OUT: inactive

IN: Repeat with C/C1=C/CC(C)(C)/C=C/C/C(C)=C/CC1
OUT: inactive

IN: Repeat with CCCc1cc(=O)[nH]c(=S)[nH]1
OUT: inactive

IN: Repeat with CC(C)CCCC(C)[C@H]1CCC2C3CC=C4CC(=O)CC[C@]4(C)C3CC[C@@]21C (some centres not stated)
OUT: inactive

IN: Repeat with CC(=O)Oc1ccc(O)cc1
OUT: inactive

IN: Repeat with CC(C)CCCC(C)[C@H]1CCC2C3CC=C4C[C@@H](O)CC[C@]4(C)C3CC[C@@]21C (some centres not stated)
OUT: inactive

IN: Repeat with Cc1cc(=O)[nH]c(=S)[nH]1
OUT: inactive

IN: Repeat with COc1cc(C/C=C/c2ccccc2)c(OC)cc1O
OUT: inactive

IN: Repeat with CC(C)c1ccc2c(c1)CCC1[C@](C)(CN)CCC[C@]21C (some centres not stated)
OUT: active

IN: Repeat with CC(C)CCCC(C)C1CCC2C3CC[C@H]4C[C@@H](O)CC[C@]4(C)C3CC[C@]12C (some centres not stated)
OUT: inactive

IN: Repeat with CC(C)=CCCC(C)[C@@H]1CC[C@]2(C)C3=C(CC[C@@]12C)C1(C)CC[C@H](O)C(C)(C)C1CC3 (some centres not stated)
OUT: inactive

IN: Repeat with CN(C)CCCN1c2ccccc2Sc2ccc(C(F)(F)F)cc21
OUT: inactive

IN: Repeat with COc1ccccc1OCC(O)CO (configuration not stated)
OUT: inactive

IN: Repeat with CC(C)CC(NC(=O)OCC1c2ccccc2-c2ccccc21)C(=O)O (configuration not stated)
OUT: inactive

IN: Repeat with O=C(O)c1ccc(S(=O)(=O)N(Cl)Cl)cc1
OUT: inactive

IN: Repeat with CCCSc1ccc2nc(NC(=O)OC)[nH]c2c1
OUT: inactive

IN: Repeat with CC(C)=CCCC(C)C1CC[C@@]2(C)C3=C(CC[C@]12C)C1(C)CC[C@H](O)C(C)(C)C1CC3 (some centres not stated)
OUT: inactive

IN: Repeat with COc1c(C)c2c(c(C)c1Cl)Oc1c(Cl)c(OC)c(Cl)c(C)c1C(=O)O2
OUT: inactive

IN: Repeat with CC1(C)CC2C1CC[C@]1(CBr)CCC3C(CC(=O)O)C(=O)O[C@@]32C1 (some centres not stated)
OUT: inactive

IN: Repeat with CC(=O)O[C@H]1CCC2(C)C3=C(CCC2C1(C)C)[C@@]1(C)CC[C@@H](C(C)CCC=C(C)C)[C@]1(C)CC3 (some centres not stated)
OUT: inactive

IN: Repeat with CC(C)CCCC(C)C1CCC2C3C[C@@H](O)[C@@]4(O)C[C@@H](O)CC[C@]4(C)C3CC[C@]12C (some centres not stated)
OUT: inactive

IN: Repeat with CC12CCC3C(CC3(C)C)C(C)(CCC1=O)O2 (configuration not stated)
OUT: inactive

IN: Repeat with CC(C)(C)NCC(O)c1ccc(O)c(CO)c1 (configuration not stated)
OUT: inactive
